Procedure Details: Solubility of nilotinib in lactic acid
Assay type: physicochemical
Condition Summary: lactic acid, organic solvent or mixture; at 65° C.

Smiles	solubility
Cc1cn(-c2cc(NC(=O)c3ccc(C)c(Nc4nccc(-c5cccnc5)n4)c3)cc(C(F)(F)F)c2)cn1	> 600 mg/mL
